Source of measurements: patent US20260297087A1

target.under.test: ERK5 (activated catalytic domain) (Homo sapiens, UniProt Q13164)
Construct: purchased CarnaBiosciences 04-146
Sequence (Q13164 55-347 limits assumed): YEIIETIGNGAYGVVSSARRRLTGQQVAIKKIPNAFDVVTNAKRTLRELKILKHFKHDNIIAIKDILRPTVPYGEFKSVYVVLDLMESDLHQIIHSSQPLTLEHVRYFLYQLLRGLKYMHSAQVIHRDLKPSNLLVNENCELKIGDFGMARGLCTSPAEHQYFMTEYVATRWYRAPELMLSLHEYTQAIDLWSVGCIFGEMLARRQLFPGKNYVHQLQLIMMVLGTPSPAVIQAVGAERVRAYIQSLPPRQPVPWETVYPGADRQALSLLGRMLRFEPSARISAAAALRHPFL
test.description: Cell-Free Assay of ERK5 Inhibition (Time-Resolved FRET, 4EBP1 peptide phosphorylation)
Type: biochemical
experimental.parameters: ERK5 catalytic domain 4 nM, 1 mM ATP, 1 μM biotinylated 4EBP1 peptide, 30 min at 37° C.; mean where repeated; read-out: Cell-free assay (IC50 in nM)
Provide the reported IC50 of each item.
Numbers only, in nM.

compound="Nc1cc(OC(F)(F)F)ccc1C(=O)N1CCC(n2c(=O)[nH]c3ncc(C45CCNCC4C5)cc32)CC1 (racemic)" measurement_kind=IC50 unit_string=nM experimental_result=533
compound=O=C(c1ccc(OC(F)(F)F)cc1)N1CCC(n2c(=O)[nH]c3ncc(N4CCO[C@H](CO)C4)cc32)CC1 measurement_kind=IC50 unit_string=nM experimental_result=442
compound="Nc1cc(OC(F)(F)F)ccc1C(=O)N1CCC(n2c(=O)[nH]c3ncc(C4CCCCO4)cc32)CC1 (racemic)" measurement_kind=IC50 unit_string=nM experimental_result=1470

Then this compound:
Enquiry: Reported IC50, compound `CO[C@H]1CC[C@@H](c2cnc3[nH]c(=O)n(C4CCN(C(=O)c5ccc(OC(F)(F)F)cc5)CC4)c3c2)CC1` : ____
Return: 1180
